// provenance: the supplement of paper PMC7125110

B1: glmS ribozyme (parent)
chain: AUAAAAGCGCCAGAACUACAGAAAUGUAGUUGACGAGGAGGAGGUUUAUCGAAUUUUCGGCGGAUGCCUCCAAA

Variants of: B1
methodNotes: self-cleavage kobs at 10000 uM GlcN6P; higher = faster cleavage; RNA array
appliedConditions: with glucosamine-6-phosphate
Variants at the floor of the assay were thinned out.
Listed variants paired with reported self-cleavage kobs at 10000 uM GlcN6P

variantSpec	unitAnnotation	relation	self-cleavage kobs at 10000 uM GlcN6P
A48G C50G C61A	s⁻¹	=	6.27e-05
G9A C58U C61G	s⁻¹	<	1e-05
A36C A64C	s⁻¹	<	1e-05
C8G U47A A48C C70G	s⁻¹	<	1e-05
G38U A52G U69G	s⁻¹	=	7.13e-05
A14C C16G	s⁻¹	=	7.9e-05
G7U G29U A48C	s⁻¹	<	1e-05
A12G G32A	s⁻¹	=	5.21e-05
G7U U54C	s⁻¹	<	1e-05
A12U A39U U54C	s⁻¹	=	0.0366
U54C A64C	s⁻¹	=	0.000185
G37C U65G U69G	s⁻¹	<	1e-05
C11U A39U U54G	s⁻¹	=	0.000492
A39U U46G C70A	s⁻¹	=	0.000162
A64G U65C C68A	s⁻¹	<	1e-05
C50U A64C	s⁻¹	<	1e-05
A36G A48C	s⁻¹	<	1e-05
G9A C16U G41A A48U	s⁻¹	<	1e-05
